Test: Plasma compound levels in the rat aortic allograft study
Type: in vivo
Details: Lewis, subcutaneous, 40/30/5 mg/kg/d subcutaneously, after 90 days of dosing, read-out: trough plasma levels
OUTCOME_MEASURE: concentration at 90 days (µM)
I only need the number, in µM, no unit after it.

Req: Record request: concentration at 90 days value, item CC(C)(Sc1cc(C(C)(C)C)c(O)c(C(C)(C)C)c1)Sc1cc(C(C)(C)C)c(OCCCC(=O)O)c(C(C)(C)C)c1 [Compound A]
Resp: 28

* * *

Experiment: Plasma compound levels in the rat aortic allograft study
Type: in vivo
Conditions: Lewis, subcutaneous, 10 mg/kg/d subcutaneously, after 90 days of dosing, read-out: trough plasma levels
OUTCOME_MEASURE: concentration at 90 days

Req: Record request: concentration at 90 days value, item CC(C)(Sc1cc(C(C)(C)C)c(O)c(C(C)(C)C)c1)Sc1cc(C(C)(C)C)c(OCCCC(=O)O)c(C(C)(C)C)c1
Resp: 10 µM
